- target entity: T1, human tissue factor pathway inhibitor (TFPI) (human, UniProt P10646 29-304, limits assumed)
- T1 construct: bought; also called hTFPI; human TFPI
- T1 sequence (looked up): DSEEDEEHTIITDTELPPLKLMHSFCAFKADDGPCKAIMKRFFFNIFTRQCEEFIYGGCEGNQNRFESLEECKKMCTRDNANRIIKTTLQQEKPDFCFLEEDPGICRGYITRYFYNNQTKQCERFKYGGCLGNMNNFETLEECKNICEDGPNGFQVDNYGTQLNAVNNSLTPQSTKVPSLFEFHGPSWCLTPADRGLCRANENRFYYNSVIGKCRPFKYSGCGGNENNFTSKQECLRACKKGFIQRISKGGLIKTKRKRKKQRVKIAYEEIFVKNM
- assay explanation: competitive ELISA
reported endpoint: variant/HC_D62R (ratio)
Please state the figure in ratio; there is no need to write the unit.

binder | variant/HC_D62R (ratio)
4B7 HC N32D+D62R+Y112D/LC M4L+S32R+D33F+N35I+D97T (Fab, V domains shown) VH: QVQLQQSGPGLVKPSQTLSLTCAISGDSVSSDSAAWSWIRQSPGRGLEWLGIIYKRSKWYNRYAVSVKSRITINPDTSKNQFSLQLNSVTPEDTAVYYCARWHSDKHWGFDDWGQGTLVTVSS VL: DIVLTQSPLSLPVTPGEPASISCRSSQSLVFRFGITYLNWYLQKPGQSPQLLIYKGSNRASGVPDRFSGSGSGTDFTLKISRVEAEDVGVYYCQQYTSYPLTFGQGTKVEIKR | 21.3

Qu. I would be grateful if you could share the reported variant/HC_D62R for 4B7 HC N32D+D62R+Y112D/LC V30L+S32R+N35I+T36N (Fab, V domains shown) VH: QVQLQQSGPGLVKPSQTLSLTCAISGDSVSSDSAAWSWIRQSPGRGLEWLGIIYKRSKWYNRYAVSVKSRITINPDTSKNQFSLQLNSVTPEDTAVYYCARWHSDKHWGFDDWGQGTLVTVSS VL: DIVMTQSPLSLPVTPGEPASISCRSSQSLLFRDGINYLNWYLQKPGQSPQLLIYKGSNRASGVPDRFSGSGSGTDFTLKISRVEAEDVGVYYCQQYDSYPLTFGQGTKVEIKR .
Ans. 25

meta.source: patent USRE47150
